Test system: metabolism of retinoic acid in human breast cancer cells
Assay: Inhibition of retinoic acid (RA) metabolism (Example C.1)
Type: cell-based
Conditions: MCF-7 human breast cancer cells, 3H-RA as substrate; concentration needed to reduce the amount of metabolites to 50% of the control
Measured endpoint: IC50 (nM)

| Compound | IC50 (nM) |
| --- | --- |
| CCC(CC)C(c1ccc(NC(=O)C2Oc3ccccc3O2)cc1)n1ccnc1 (centres unmarked) | 1.03 |

1. CCCC(C)C(c1ccc(NC(=O)Cc2ccc(OC)c(OC)c2)cc1)n1cncn1 (racemic)
2. CCOc1ccc(CC(=O)Nc2ccc(C(C(CC)CC)n3cncn3)cc2)cc1C (racemic)
Q) Endpoint returns whichever of 1 and 2 has the numerically higher IC50. I would appreciate it if you answered with the label of your choice.
A) 1
(1: 1.68 nM, 2: 0.588 nM)

====

System: metabolism of retinoic acid in human breast cancer cells
Assay: Inhibition of retinoic acid (RA) metabolism (Example C.1)
Type: cell-based
Conditions: MCF-7 human breast cancer cells, 3H-RA as substrate; concentration needed to reduce the amount of metabolites to 50% of the control
IC50 overview

Solved cases (2 shown):
| Compound | IC50 |
| --- | --- |
| C/C(=C\c1ccccc1)C(=O)Nc1ccc(C(c2cccnc2)C(C)C)cc1 (racemic) | > 1000 nM |
| CC(C)C(c1ccc(NC(=O)Nc2cccc(F)c2)cc1)(C(C)C)n1ccnc1 | > 100 nM |

Q) Consider the compound CCC(CC)C(c1ccc(NC(=O)Cc2ccc(OC)cc2OC)cc1)n1ccnc1 (racemic) and give its measured IC50.
A) < 0.01 nM

====

System: metabolism of retinoic acid in human breast cancer cells
Experiment: Inhibition of retinoic acid (RA) metabolism (Example C.1)
Assay type: cell-based
Conditions: MCF-7 human breast cancer cells, 3H-RA as substrate; concentration needed to reduce the amount of metabolites to 50% of the control
Measured endpoint: IC50 (nM)

| Compound | Unit of measurement | IC50 |
| --- | --- | --- |
| CCC(CC)C(c1ccc(NC(=O)Cc2ccc3c(c2)C(C)(C)CCC3(C)C)cc1)n1ccnc1 (racemic) [Compound 38] | nM | 1.04 |

P. CCC(CC)C(c1ccc(NC(=O)Cc2cccc(OC)c2OC)cc1)n1ccnc1 (racemic) [Compound 102]
Q. CCC(CC)C(c1ccc(NC(=O)C(C)(C)O)cc1)n1ccnc1 (racemic) [Compound 24]
R. CCC(CC)C(c1ccc(NC(=O)Nc2nc3ccccc3s2)cc1)n1ccnc1 (racemic) [Compound 64]
S. C/C(=C\c1ccccn1)C(=O)Nc1ccc(C(C(C)C)n2ccnc2)cc1 (racemic) [Compound 604]
Q) Falling order of IC50, please. As an answer, provide the labels arranged in the order called for.
A) R, S, Q, P
(R: 6.6 nM, S: 2.89 nM, Q: 1.37 nM, P: 0.0678 nM)

====

Test system: metabolism of retinoic acid in human breast cancer cells
Assay: Inhibition of retinoic acid (RA) metabolism (Example C.1)
Assay type: cell-based
Settings: MCF-7 human breast cancer cells, 3H-RA as substrate; concentration needed to reduce the amount of metabolites to 50% of the control
pIC50: −log10 of the molar value.
Measured endpoint: pIC50

| Compound | Measured endpoint | Recorded number |
| --- | --- | --- |
| CC(C)C(c1ccc(NC(=O)c2ccccn2)cc1)n1ccnc1 (racemic) | pIC50 | 8.19 |
| CCN(CC)C(C)C(c1ccc(NC(=O)Cc2ccc(OC)c(OC)c2)cc1)n1cncn1 (single isomer, unassigned) | pIC50 | 8.14 |
| C/C(=C\c1ccc2nn(C)nc2c1)C(=O)Nc1ccc(C(C(C)C)n2ccnc2)cc1 (racemic) | pIC50 | 8.20 |

A. CC(C)CC(c1ccc(NC(=O)Cc2ccc(Cl)cc2)cc1)n1ccnc1 (racemic)
B. CCC(CC)C(c1ccc(NC(=O)Cc2ccc(C)c(OC)c2)cc1)n1cncn1 (racemic) [Compound 84]
Q) Quick one: lower pIC50, A or B ? I would appreciate it if you answered with the label of your choice.
A) A
